assay.overview: chemical genetic growth profiling, strain panel (AID 1159580);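 also: tested at 20 µM; growth read once vehicle control cultures reached saturation at 30 °C; 1 = growth at the plate median or of vehicle wells; lower values mean less growth of the strain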
protocol.conditions: S. cerevisiae deletion strains, growth OD, locus YPL256C, strain CLN2, active compounds read low
About 2,000 (36%) of roughly 5,500 compounds were called active. Another 18% or so got no clear call; they are omitted. The list shows a part of the results.
Below, each entry is listed alongside its reported normalized growth.

Q. For the compound `COc1cc(-c2coc3cc(OCc4ccccc4)c(OC)c(O)c3c2=O)cc(O)c1OC` , what normalized growth is on record?
A. 1 (inactive)

Q. Given the compound `CO/N=C(\C(=O)N[C@@H]1C(=O)N2C(C(=O)O)=C(CSc3nc(=O)c(O)nn3C)CS[C@H]12)c1csc(N)n1` , what is its reported normalized growth?
A. 1.02 (inactive)

Q. Reported normalized growth, compound `CO/N=C(\C(=O)N[C@@H]1C(=O)N2C(C(=O)O)=C(COC(C)=O)CS[C@H]12)c1csc(N)n1` : ____
A. 1 (inactive)

Q. I have this compound here, `COC(=O)c1sccc1-c1ccc(/C=C/[N+](=O)[O-])o1` , and I need its recorded normalized growth.
A. 0.147 (active)

Q. So what does the record say about normalized growth for `CC1(C)NC(=O)N(c2ccc([N+](=O)[O-])c(C(F)(F)F)c2)C1=O` ?
A. 0.996 (inactive)

Q. Fill in the blank: the reported normalized growth of `O=c1[nH]oc2c1CCNC2` is ____.
A. 1.01 (inactive)

Q. Returns the measured normalized growth for the input compound. Input: `CC(C)(CCC(C)(C)N1C(=O)c2cccc3cccc(c23)C1=O)N1C(=O)c2cccc3cccc(c23)C1=O`
A. 0.134 (active)

Q. What does the data say about its normalized growth? Entry: `CCc1ccn2cc(Nc3ccccc3Cl)nc2c1`
A. 0.917 (inactive)

Q. So what's the measured normalized growth for this one? `CC1(C)OC(=O)C(=Cc2cccn2-c2ccc(OC(F)(F)F)cc2)C(=O)O1`
A. 0.782 (active)

Q. normalized growth lookup needed for CO/N=C(\C(=O)NC1C(=O)N2C(C(=O)OC(C)OC(C)=O)=C(COC(N)=O)CSC12)c1ccco1 (stereo not given) , thanks.
A. 1.07 (inactive)

* * *

assay.overview: chemical genetic growth profiling, strain panel (AID 1159580);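 also: tested at 20 µM; growth read once vehicle control cultures reached saturation at 30 °C; 1 = growth at the plate median or of vehicle wells; lower values mean less growth of the strain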
protocol.conditions: S. cerevisiae deletion strains, growth OD, locus YNL197C, strain WHI3, active compounds read low
Out of some 5,500 compounds screened, about 2,000 (36%) were called active. Another 18% or so got no clear call; they are omitted. Some of the results follow.
measured.property: normalized growth
# answer = number (no unit)

molecule	normalized growth
CCCN(CCC)C1CCc2cccc(O)c2C1 (stereo not given)	1.01
C=C1C(=O)O[C@@H]2[C@H]3O[C@]3(C)CCC=C(C)CC[C@@H]12	0.95
CO/N=C(/C(=O)N[C@@H]1C(=O)N2C(C(=O)O)=C(COC(C)=O)CS[C@H]12)c1csc(N)n1	1.01
O=C(C1CCCCC1)N1CC(=O)N2CCc3ccccc3C2C1 (stereo not given)	1.01
CC(C)(C)C1(O)CCN2CC3c4ccccc4CCc4cccc(c43)C2C1 (stereo not given)	0.972
CO/N=C(/C(=O)N[C@@H]1C(=O)N2C(C(=O)O)=C(CSc3nc(=O)c(O)nn3C)CSC12)c1csc(N)n1 (stereo not given in full)	1.01

Could you now consider this next molecule?
Q. Name the reported normalized growth value associated with the molecule `NC/C=C\C(=O)O`
A. 0.985
